The values you see were collected from ChEMBL document CHEMBL1122461.

Test system: Vero
assay-name: Cytotoxicity against BSCL and Vero cells
Assay type: functional, Chlorocebus sabaeus
Exercise: state measured Cytotoxicity for each of the molecules provided.
One number for each entry, in mm.

molecule	parameter-measured	measured-value
O=C1OCC/C1=C\[C@@H]1O[C@H](c2ccccc2)O[C@@H]2CO[C@@H](c3ccccc3)O[C@@H]12	Cytotoxicity	3
CC(=O)OCC(OC(C)=O)C(OC(C)=O)C(C=C(C(C)=O)C(C)=O)OC(C)=O (centres undefined)	Cytotoxicity	13
CC(=O)OC(C=C(C(C)=O)C(C)=O)C(OC(=O)c1ccccc1)C(COC(=O)c1ccccc1)OC(C)=O (centres undefined)	Cytotoxicity	2

Field: next molecule
Return value of Cytotoxicity for input CC(=O)OCC(OC(C)=O)C(OC(C)=O)C(OC(C)=O)C(C=C(C(C)=O)C(C)=O)OC(C)=O (centres undefined) , no commentary.
8
